- Tested on: MRSP (Methicillin-Resistant Staphylococcus pseudintermedius)
- assay comment: MIC against selected strains of MRSP
- Type: cell-based
- Parameters: key: MIC in μM (first well with no visible growth)
- reported conditions: strain 80729, Table 4
For each record, write down the corresponding MIC MRSP 80729.
Could you keep your reply to the number by itself?

Query: Can you share its MIC MRSP 80729? I mean this substance: 2 (RWCFRVCYRGICYRRCRD; Artificial antimicrobial peptide) [compound 2]
Reply: 1.6

Query: // query: 3 (GWCFRVCYRGICYRRCRD; Artificial Antimicrobial peptide) [compound 3]
Reply: 1.6

Query: // query: 11 (KWCFRVCYRGICYRRCND; Artificial Antimicrobial peptide) [compound 11]
Reply: 0.8

Query: // query: 96 (KWCFRVCYGRICYRRCRD; Artificial Antimicrobial peptide) [compound 96]
Reply: 1.6

Query: // query: 9 (KWCFRVCYRGFCYRRCRD; Artificial Antimicrobial peptide) [compound 9]
Reply: 1.6

Query: // query: 10 (KWCFRVCYRGICYHRCRD; Artificial Antimicrobial peptide) [compound 10]
Reply: 1.6

Query: // query: 4 (KFCFRVCYRGICYRRCRD; Artificial antimicrobial peptide) [compound 4]
Reply: 0.8

Query: // query: 5 (KWCFYVCYRGICYRRCRD; Artificial Antimicrobial peptide) [compound 5]
Reply: 1.6
